assay: A CellTox Green Cytotoxicity Assay to monitor cytotoxicity in HEK293 cells - 40 hour (AID 1224871); conditions: CellTox Green fluorescence; series mostly up to 76.8 µM; further: nearly all actives have a fitted effect of over 45% in size; further: potency means the concentration at half of the fitted maximal effect
Results filed as inconclusive are left out. Calls of active or inactive are those of the source. The call rests on the fitted dose curve; in most records, active means well fitted activation curve with a large enough effect in the repeat runs; inconclusive means weak or mixed curves; inactive means flat fitted curve, though single readings scatter.
PROPERTY: Potency

>>> recorded_result("CCCCCCCCOc1ccccc1C(=O)Nc1ccc(C(=O)OCC[N+](C)(CC)CC)cc1")
"26.8 µM (active)"
>>> recorded_result("COc1ccc(CN2CCN(C(c3ccc(F)cc3)c3ccc(F)cc3)CC2)c(OC)c1OC")
"4.77 µM (active)"
>>> recorded_result("N=C1N=C(N)c2ccccc21")
"inactive"
>>> recorded_result("CCCCC(CC)COC(=O)c1ccccc1C(=O)O (stereo not drawn)")
"inactive"
>>> recorded_result("OCCCCCCCCCCCCBr")
"inactive"
>>> recorded_result("NNC(=O)c1cccc(C(=O)NN)c1")
"inactive"
>>> recorded_result("CC[C@H]1O[C@]2(CC[C@@H]1C)C[C@@H]1C[C@@H](C/C=C(\\C)C[C@@H](C)/C=C/C=C3\\CO[C@@H]4[C@H](O)C(C)=C[C@@H](C(=O)O1)[C@]34O)O2")
"43.3 µM (active)"
>>> recorded_result("CCCCCCCC[N+](CCCCCCCC)(CCCCCCCC)CCCCCCCC")
"19.5 µM (active)"
>>> recorded_result("[Cl][Au]([Cl])[Cl]")
"21.9 µM (active)"
>>> recorded_result("NC(=O)N1C(=O)C(C(=O)c2cc(Cl)cs2)c2cc(F)c(Cl)cc21 (stereo not drawn)")
"inactive"
>>> recorded_result("Clc1ccc2n[nH]nc2c1")
"inactive"
>>> recorded_result("CCC(C)(C)C1CCCCC1OC(C)=O (stereo not drawn)")
"inactive"
>>> recorded_result("CCN(Cc1cccnc1)C(=O)c1cccc(Cl)c1[C@]1(C)C(=O)N(Cc2ccc(OC)cc2OC)c2ccc(Cl)cc21")
"inactive"
>>> recorded_result("O=S1(=O)CC(Cl)(Cl)C(Cl)(Cl)C1")
"1.95 µM (active)"
>>> recorded_result("O=C(O)c1cc(O)c2c(c1)C(=O)c1cccc(O)c1C2=O")
"inactive"
>>> recorded_result("O=C(O)c1c(Cl)cccc1Cl")
"inactive"
>>> recorded_result("CNCc1cc(F)ccc1Oc1ccc(Cl)c(Cl)c1")
"49 µM (active)"
>>> recorded_result("CC(C)CCCCCCCCCCCCCCC(=O)O")
"inactive"
>>> recorded_result("Cc1ccc(O)c(C(C)(C)C)c1")
"43.6 µM (active)"
>>> recorded_result("CC/C(=C(\\c1ccc(O)cc1)c1ccc(OCCN(C)C)cc1)c1ccccc1")
"43.8 µM (active)"
>>> recorded_result("COc1c(C)c2c(c(O)c1C/C=C(\\C)CCC(=O)O)C(=O)OC2")
"inactive"
>>> recorded_result("N/C(=N\\N=C\\c1ccc(Cl)cc1)N/N=C/c1ccc(Cl)cc1")
"23.9 µM (active)"
>>> recorded_result("CCCCCCCC[P+](CCCCCCCC)(CCCCCCCC)CCCCCCCC")
"6.87 µM (active)"
>>> recorded_result("CC1=C(C(=O)OC(C)C)C(c2cccc([N+](=O)[O-])c2)C(C(=O)OC2CN(C(c3ccccc3)c3ccccc3)C2)=C(N)N1 (stereo not drawn)")
"inactive"
>>> recorded_result("NC(=O)CC[C@@H]1NC(=O)[C@H](Cc2ccccc2)NC(=O)[C@H](Cc2ccc(O)cc2)NC(=O)CCSSC[C@@H](C(=O)N2CCC[C@H]2C(=O)N[C@@H](CCCN=C(N)N)C(=O)NCC(N)=O)NC(=O)[C@H](CC(N)=O)NC1=O")
"inactive"
>>> recorded_result("Nc1ccc2c3c(cccc13)-c1ccccc1-2")
"39.3 µM (active)"
>>> recorded_result("Nc1c2ccccc2nc2ccccc12")
"24.2 µM (active)"
>>> recorded_result("O=C(NO)C1(NS(=O)(=O)c2ccc(Oc3ccc(F)cc3)cc2)CCOCC1")
"inactive"
>>> recorded_result("O=C1C=CC(=O)N1")
"17.8 µM (active)"
>>> recorded_result("Cn1cc(C(=O)[C@@H]2CCc3nc[nH]c3C2)c2ccccc21")
"inactive"
>>> recorded_result("CN(C)C(=O)C1(N2CCCCC2)CCN(CC[C@@]2(c3ccc(Cl)c(Cl)c3)CN(C(=O)c3ccccc3)CCO2)CC1")
"28.9 µM (active)"
>>> recorded_result("Clc1ccc(C(Cn2ccnc2)OCc2ccc(Sc3ccccc3)cc2)c(Cl)c1 (stereo not drawn)")
"inactive"
>>> recorded_result("O=C(c1ccc(F)cc1)C1CCN(CCn2c(=O)[nH]c3ccccc3c2=O)CC1")
"inactive"
>>> recorded_result("c1ccc(CSCc2ccccc2)cc1")
"inactive"
>>> recorded_result("COc1cccc(N)c1")
"inactive"
>>> recorded_result("CCCC/C=C/CCCCO")
"inactive"
>>> recorded_result("CCCCN1CCCC[C@H]1C(=O)Nc1c(C)cccc1C")
"inactive"
>>> recorded_result("O=C(O)c1ccc(Cl)c(Cl)c1")
"inactive"
>>> recorded_result("CCCCCCCC/C=C\\CCCCCCCCOCCO")
"31.9 µM (active)"
>>> recorded_result("CCOc1nc2cccc(C(=O)OC(C)OC(=O)OC3CCCCC3)c2n1Cc1ccc(-c2ccccc2-c2nn[nH]n2)cc1 (stereo not drawn)")
"30.9 µM (active)"
>>> recorded_result("CCN(CC)CCNC(=O)c1c(C)[nH]c(/C=C2\\C(=O)Nc3ccc(F)cc32)c1C")
"23.9 µM (active)"
>>> recorded_result("CS(=O)(=O)CCNCc1ccc(-c2ccc3ncnc(Nc4ccc(OCc5cccc(F)c5)c(Cl)c4)c3c2)o1")
"inactive"
>>> recorded_result("COc1ccc(C(=O)/C(Br)=C\\C(=O)O)cc1")
"24.5 µM (active)"
